Data provenance: patent US9096591B2

test system: adrenergic receptors α1D, α2A, α2B; serotonin receptor 5-HT6; dopamine receptor D2L; assay: Classification of compounds (Type 1-4) from receptor binding and neurite outgrowth
assay.metric: compound type (classification by receptor binding profile and neurite outgrowth)

structure: CN1CCc2c(c3cc(Cl)ccc3n2CCc2cccnc2)C1
assayed.target: adrenergic receptors α1D, α2A, α2B; serotonin receptor 5-HT6; dopamine receptor D2L
result: Type one
--
structure: Cc1ccc(CCn2c3c(c4cc(Cl)c(F)cc42)CN(C)CC3)cn1
assayed.target: adrenergic receptors α1D, α2A, α2B; serotonin receptor 5-HT6; dopamine receptor D2L
result: Type one
--
structure: CCCc1ccc(CCn2c3c(c4cc(Cl)ccc42)CN(C)CC3)cn1
assayed.target: adrenergic receptors α1D, α2A, α2B; serotonin receptor 5-HT6; dopamine receptor D2L
result: Type one

---

compound: COc1ccc2c(c1)c1c(n2CCc2noc(-c3ccccc3)n2)CCN(C)C1 [Compound G6-b]
melting point: 77.5 to 79 °C

compound: Cc1ccc2c(c1)c1c(n2CCc2noc(-c3ccccc3)n2)CCN(C)C1 [Compound G6-c]
melting point: 120 to 120.5 °C

compound: COc1ccc2c(c1)c1c(n2CCc2n[nH]c(=S)n2C)CCN(C)C1 [Compound G11-d]
melting point: 219 to 222 °C

compound: Cc1ccc2c(c1)c1c(n2CCc2nc(-c3ccccc3)cs2)CCN(C)C1 [Compound G8-c]
melting point: 148.5 to 149 °C

compound: COc1ccc2c(c1)c1c(n2CCc2nc(-c3ccccc3)cs2)CCN(C)C1 [Compound G8-b]
melting point: 135 to 136.5 °C

compound: CN1CCc2c(c3cc(F)ccc3n2CCc2nc(-c3ccccc3)cs2)C1 [Compound G8-f]
melting point: 136.5 to 137 °C

compound: CN1CCc2c(c3cc(Cl)ccc3n2CCc2noc(-c3ccccc3)n2)C1 [Compound G6-d]
melting point: 122 to 123 °C

compound: CN1CCc2c(c3ccccc3n2CCc2noc(-c3ccccc3)n2)C1 [Compound G6-a]
melting point: 111 to 112 °C

compound: CN1CCc2c(c3cc(F)ccc3n2CCc2n[nH]c(=S)n2C)C1 [Compound G11-c]
melting point: 215 to 218 °C

compound: CN1CCc2c(c3cc(Cl)ccc3n2CCc2n[nH]c(=S)n2C)C1 [Compound G11-b]
melting point: 216 to 219 °C

compound: CN1CCc2c(c3cc(F)ccc3n2CCc2noc(-c3ccccc3)n2)C1 [Compound G6-f]
melting point: 121.5 to 122.5 °C

---

biological target: human recombinant adrenergic α1D receptor (Homo sapiens, UniProt P25100); construct: expressed in transfected cells; host or cells: HEK-293 cells; assay: Adrenergic α1D radioligand binding ([3H]Prozosin); set-up: concentration or dose not given beside the values; conditions: percent inhibition of specific binding
# if value of Inhibition of ligand binding, Adren. alpha1D reaches 60%, tag Met; if it stays below, tag Not met

compound: CN1CCc2c(c3cc(Cl)ccc3n2CCN2CCOCC2)C1 [Compound 186]
assayed.target: human recombinant adrenergic α1D receptor (Homo sapiens, UniProt P25100)
category: Not met
--
compound: Cc1ccc2c(c1)c1c(n2CCc2ccc(C)nc2)C(Br)C(=O)N(C)C1 (centres unmarked) [Compound 232]
assayed.target: human recombinant adrenergic α1D receptor (Homo sapiens, UniProt P25100)
category: Not met
--
compound: CCc1ccc(CCn2c3c(c4cc(C)ccc42)CN(C)CC3)cn1 [Compound 359]
assayed.target: human recombinant adrenergic α1D receptor (Homo sapiens, UniProt P25100)
category: Met
--
compound: Cc1ccc2c(c1)c1c(n2CCc2cncc(C(F)(F)F)c2)CCN(C)C1 [Compound 425]
assayed.target: human recombinant adrenergic α1D receptor (Homo sapiens, UniProt P25100)
category: Met

---

Biological target: human recombinant adrenergic α1D receptor (Homo sapiens)
Construct: expressed in transfected cells; host or cells: HEK-293 cells
Sequence (P25100 1-572): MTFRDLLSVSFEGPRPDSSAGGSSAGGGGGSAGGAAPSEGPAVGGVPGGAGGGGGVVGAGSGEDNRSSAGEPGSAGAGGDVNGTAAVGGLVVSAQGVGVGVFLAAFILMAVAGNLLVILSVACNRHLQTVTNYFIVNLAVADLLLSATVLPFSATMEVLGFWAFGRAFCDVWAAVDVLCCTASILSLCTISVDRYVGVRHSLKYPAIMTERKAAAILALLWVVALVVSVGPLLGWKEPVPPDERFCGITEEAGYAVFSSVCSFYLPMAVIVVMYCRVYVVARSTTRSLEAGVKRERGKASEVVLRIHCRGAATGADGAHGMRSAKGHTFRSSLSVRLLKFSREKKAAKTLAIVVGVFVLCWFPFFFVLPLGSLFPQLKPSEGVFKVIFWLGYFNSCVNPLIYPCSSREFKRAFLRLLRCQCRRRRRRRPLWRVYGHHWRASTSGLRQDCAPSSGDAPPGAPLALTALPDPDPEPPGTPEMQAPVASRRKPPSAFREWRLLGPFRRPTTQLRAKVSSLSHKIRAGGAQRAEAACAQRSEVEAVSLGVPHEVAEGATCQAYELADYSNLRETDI
Assay: Adrenergic α1D radioligand binding ([3H]Prozosin)
Design: concentration or dose not given beside the values
Conditions: percent inhibition of specific binding
assay.metric: Inhibition of ligand binding, Adren. alpha1D (%)

molecule: Cc1ccc(CCn2c3c(c4cc(C(=O)O)ccc42)CN(C)CC3)cn1
assayed.target: human recombinant adrenergic α1D receptor (Homo sapiens)
result.number: −10

molecule: CN1CCc2c(c3cc(Cl)ccc3n2CCC2CCCCC2)C1
assayed.target: human recombinant adrenergic α1D receptor (Homo sapiens)
result.number: 32

molecule: Cc1ccc2c(c1)c1c(n2CCc2ccccn2)CCN(C)C1
assayed.target: human recombinant adrenergic α1D receptor (Homo sapiens)
result.number: 76

molecule: Cc1ccc2c(c1)c1c(n2CC(=O)N2CCSCC2)CCN(C)C1
assayed.target: human recombinant adrenergic α1D receptor (Homo sapiens)
result.number: 6

molecule: Cc1ccc(CCn2c3c(c4cc(C(F)(F)F)ccc42)CN(C)CC3)cc1
assayed.target: human recombinant adrenergic α1D receptor (Homo sapiens)
result.number: 81

molecule: Cc1ccc(C(O)Cn2c3c(c4cc(C)ccc42)CN(C)CC3)cc1 (racemic)
assayed.target: human recombinant adrenergic α1D receptor (Homo sapiens)
result.number: 89

molecule: Cc1ccc2c(c1)c1c(n2CC(=O)N2CCCCC2)CCN(C)C1
assayed.target: human recombinant adrenergic α1D receptor (Homo sapiens)
result.number: 9

molecule: Cc1ccc2c(c1)c1c(n2CCc2ccccc2)CCN(C(=O)OCC(Cl)(Cl)Cl)C1
assayed.target: human recombinant adrenergic α1D receptor (Homo sapiens)
result.number: 11

molecule: Cc1ccc2c(c1)c1c(n2CCc2ccc(C)[n+]([O-])c2)CCN(C)C1
assayed.target: human recombinant adrenergic α1D receptor (Homo sapiens)
result.number: 9

---

molecular target: human recombinant histamine H2 receptor (Homo sapiens, UniProt P25021); construct: expressed in transfected cells; host or cells: CHO-K1 cells; assay: Histamine H2 radioligand binding ([125I]Aminopotentidine); conditions: compounds screened at 1 μM; read-out: Inhibition of ligand binding, Hist. H2 (percent inhibition of specific binding)
Sequence (P25021 whole entry): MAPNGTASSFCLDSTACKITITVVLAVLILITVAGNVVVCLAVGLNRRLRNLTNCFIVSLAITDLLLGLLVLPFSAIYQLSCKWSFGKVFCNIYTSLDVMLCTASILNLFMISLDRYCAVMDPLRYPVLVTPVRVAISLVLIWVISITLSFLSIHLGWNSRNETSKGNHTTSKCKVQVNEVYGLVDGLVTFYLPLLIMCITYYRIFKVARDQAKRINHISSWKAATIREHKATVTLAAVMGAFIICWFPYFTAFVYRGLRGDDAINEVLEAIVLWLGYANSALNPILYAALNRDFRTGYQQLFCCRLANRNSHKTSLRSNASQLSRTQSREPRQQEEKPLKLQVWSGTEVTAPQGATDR
# if value of inhibition at 1 µM reaches 20%, tag 1.0; if it stays below, tag 0.0

structure: CN1CCc2c(c3ccccc3n2CCc2noc(-c3ccccc3)n2)C1
category: 1.0
//
structure: Cc1ccc2c(c1)c1c(n2CCc2noc(-c3ccccc3)n2)CCN(C)C1
category: 1.0
//
structure: CN1CCc2c(c3cc(Cl)ccc3n2CCc2noc(-c3ccccc3)n2)C1
category: 1.0
//
structure: COc1ccc2c(c1)c1c(n2CCc2nc(-c3ccccc3)cs2)CCN(C)C1
category: 1.0
//
structure: CN1CCc2c(c3ccncc3n2CCc2ccncc2)C1
category: 0.0
//
structure: CN1CCc2c(c3ncccc3n2CCc2ccccn2)C1
category: 0.0
//
structure: CN1CCc2c(c3cc(I)ccc3n2CC(=O)N2CCCCC2)C1
category: 0.0
//
structure: CN1CCc2c(c3cc(F)ccc3n2CCc2nc(-c3ccccc3)cs2)C1
category: 1.0
//
structure: Cc1ccc2c(c1)c1c(n2CCc2nc(-c3ccccc3)cs2)CCN(C)C1
category: 1.0
//
structure: Cc1ccc(CCn2c3c(c4cc(Br)ccc42)CN(C)CC3)cn1
category: 1.0
//
structure: CN1CCc2c(c3ncccc3n2CCc2ccncc2)C1
category: 0.0
//
structure: CN1CCc2c(c3ccncc3n2CCc2ccccn2)C1
category: 0.0
//
structure: CN1CCc2c(c3cc(Br)ccc3n2CC(=O)N2CCCCC2)C1
category: 0.0
//
structure: Cc1ccc(CCn2c3c(c4cc(I)ccc42)CN(C)CC3)cn1
category: 1.0

---

target: human recombinant histamine H1 receptor (Homo sapiens, UniProt P35367); construct: expressed in transfected cells; host or cells: CHO cells; test: Histamine H1 radioligand binding ([3H]Pyrilamine); settings: percent inhibition of specific binding; screened at 1 μM; read-out: Inhibition of ligand binding, Hist. H1
Sequence (P35367 whole entry): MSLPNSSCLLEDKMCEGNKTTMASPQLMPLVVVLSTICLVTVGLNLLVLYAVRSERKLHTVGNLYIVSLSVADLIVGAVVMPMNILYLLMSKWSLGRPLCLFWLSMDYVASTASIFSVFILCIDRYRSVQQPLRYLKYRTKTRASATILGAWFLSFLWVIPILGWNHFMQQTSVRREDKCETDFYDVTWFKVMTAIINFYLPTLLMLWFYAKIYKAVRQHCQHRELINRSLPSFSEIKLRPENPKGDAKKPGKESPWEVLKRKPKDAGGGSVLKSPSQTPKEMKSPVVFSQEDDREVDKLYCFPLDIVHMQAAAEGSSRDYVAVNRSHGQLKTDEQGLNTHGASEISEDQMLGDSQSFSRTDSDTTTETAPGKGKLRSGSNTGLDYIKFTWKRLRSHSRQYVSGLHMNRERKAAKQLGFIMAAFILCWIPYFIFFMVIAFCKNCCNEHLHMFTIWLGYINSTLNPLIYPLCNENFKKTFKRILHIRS
The following compounds are shown together with reported inhibition at 1 µM values.

compound: CN1CCc2c(c3cc(Cl)ccc3n2CCc2ccc(Cl)cc2)C1 [Compound 45]
value.unit: %
inhibition at 1 µM: 103
--
compound: CC(C)c1ccc2c(c1)c1c(n2CCc2ccc(C(F)(F)F)nc2)CCN(C)C1 [Compound 342]
value.unit: %
inhibition at 1 µM: 80
--
compound: CCN1CCc2c(c3ccccc3n2CCc2ccccn2)C1 [Compound 6]
value.unit: %
inhibition at 1 µM: 32
--
compound: CN1CCc2c(c3cc(Cl)cc(F)c3n2CCc2ccc(C(F)(F)F)nc2)C1 [Compound 338]
value.unit: %
inhibition at 1 µM: 96
--
compound: CCN1CCc2c(c3ccccc3n2CCc2ccccc2)C1 [Compound 4]
value.unit: %
inhibition at 1 µM: 93
--
compound: CN1CCc2c(c3cc(Cl)ccc3n2CCn2cccc2)C1 [Compound 349]
value.unit: %
inhibition at 1 µM: 111
--
compound: CN1CCc2c(c3ccccc3n2CCc2ccncc2)C1 [Compound 10]
value.unit: %
inhibition at 1 µM: 88
--
compound: CN1CCc2c(c3cc(Cl)ccc3n2CC(=O)N2CCCCC2)C1 [Compound 236]
value.unit: %
inhibition at 1 µM: 42
--
compound: Cc1ccc(C(O)Cn2c3c(c4cc(C)ccc42)CN(C)CC3)cc1 (racemic) [Compound 28]
value.unit: %
inhibition at 1 µM: 85
--
compound: CN1CCc2c(c3c(Cl)cccc3n2CCc2ccccc2)C1 [Compound 81]
value.unit: %
inhibition at 1 µM: 94
--
compound: Cc1ccc2c(c1)c1c(n2CCc2ccccc2F)CCN(C)C1 [Compound 34]
value.unit: %
inhibition at 1 µM: 96
--
compound: Cc1ncc(CCn2c3c(c4cc(Cl)ccc42)CN(C)CC3)cn1 [Compound 361]
value.unit: %
inhibition at 1 µM: 106
--
compound: Cc1ccc(C(O)Cn2c3c(c4ccccc42)CN(C)CC3)cc1 (stereo not shown) [Compound 7]
value.unit: %
inhibition at 1 µM: 47
--
compound: CN1CCc2c(c3cc(Cl)ccc3n2CCN2CCCCC2)C1 [Compound 189]
value.unit: %
inhibition at 1 µM: 94
--
compound: CCOC(=O)N1CCc2c(c3cc(C)ccc3n2CCc2ccccc2)C1 [Compound 24]
value.unit: %
inhibition at 1 µM: -4
--
compound: Cc1ccc2c(c1)c1c(n2CCc2cccnc2)CCN(C)C1 [Compound 60]
value.unit: %
inhibition at 1 µM: 101
--
compound: CCc1ccc2c(c1)c1c(n2CCc2cnc(C)cn2)CCN(C)C1 [Compound 364]
value.unit: %
inhibition at 1 µM: 87
--
compound: CCN1CCc2c(c3cc(C)ccc3n2CCc2ccccc2)C1 [Compound 37]
value.unit: %
inhibition at 1 µM: 101
--
compound: CC(C)N1CCN(C(=O)Cn2c3c(c4cc(Cl)ccc42)CN(C)CC3)CC1 [Compound 248]
value.unit: %
inhibition at 1 µM: 85
